Sourced from the RNAGym collection of RNA variant scans (doi:10.1073/pnas.2313332121)

B1: TPR t1 (parent)
chain: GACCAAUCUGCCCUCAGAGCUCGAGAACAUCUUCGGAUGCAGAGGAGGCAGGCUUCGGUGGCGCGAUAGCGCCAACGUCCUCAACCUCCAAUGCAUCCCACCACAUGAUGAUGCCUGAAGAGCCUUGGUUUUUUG

# Variants of: B1
# TEST_NAME: polymerase ribozyme fitness, log enrichment relative to wild type (log ratio); higher = more active; in vitro selection for triplet polymerase activity
Mark label 1 for reported polymerase ribozyme fitness (log ratio) of -0.8 or greater; mark label 0 for anything smaller.

{"QUERY_SEQUENCE": "GACCAAUCUGCCCUCAGAACUCGAGAACAUCUUCGGAUGCAGAGGAGGCAGGCUUCGGUGGCGCGAUAUCGCCAACGUCCUCAACCUCCAAUGCAUCCCACCACAUGAUGAUGCCUGAAGAGCCUUGGUUUUUUG [G19A G69U]", "CLASSIFICATION": "label 0"}
{"QUERY_SEQUENCE": "GACCAAUCUGCUCUCAGAGCUCGAGAACAUCUUCGGAUGCAGAGGAGGCAGGCUUCGGUGGGGCGAUAGCGCCAACGUCCUCAACCUCCAAUGCAUCCCACCACAUGAUGAUGCCUGAAGAUCCUUGGUUUUUUG [C12U C62G G122U]", "CLASSIFICATION": "label 1"}
{"QUERY_SEQUENCE": "GACCAAUCUGCCCUCAGAGCUCGAGAACAUCUUUGGAUGCAGAGGAGGCAGGCUUCGGUGGCGCGAUAGCACCAACGUCCUCAACCUCCAAUGCAUCCCACCACAUGAUGAUGCCUGAAGAGCCUUGGUUUUUUG [C34U G71A]", "CLASSIFICATION": "label 0"}
{"QUERY_SEQUENCE": "GACCAAUCUGCCCUCAGAGCUCGAGAACAUCUUCGGAUGCAGAGGAGUCAGGCUUCGGUGUCGCGAUAGCGCCAACGUCCUCAACCUCCAAUUCAUCCCACCACAUGAUGAAGCCUGAAGAGCAUUGGUUUUUUG [G48U G61U G93U U112A C124A]", "CLASSIFICATION": "label 1"}
{"QUERY_SEQUENCE": "GACCAAUCUGCCCUCAGAGCUCGAGAACAUCUUCGGAUGCAGUGGAGGCAGGCUUCGGUGGCGCGAUAGCGCCAACGUCCUCAACCACCAAUGCAUCCCACCACAUGAUAAUGCCUGAAGAGCCUUGGUUUUUUG [A43U U87A G110A]", "CLASSIFICATION": "label 0"}
{"QUERY_SEQUENCE": "GACCAAUCUGCCCUCAGAGCUCGAGAACAUCUUCGGAUGCAGAGGAGGCAGGCUUCGGUGGCGCGAUAGCGCCAACGUCCUCAACUUCCAAUGCAUCCCACCACAUGAUGAUGCCUGAAGAGCAUUGGUUUUUUG [C86U C124A]", "CLASSIFICATION": "label 1"}
{"QUERY_SEQUENCE": "GACCAAUCUGCCCUCAGAGCUCGAGAACAUCUUCGGAUGCAGAGGAGGCAGGCUUCGGUGGCGCGAUAGCGCCAACGUCCUCAACCUCCAAUGCAUCACACCACAUGAUGAUGCCUGAAGAGUCUUGGUUUUUUG [C98A C123U]", "CLASSIFICATION": "label 0"}
{"QUERY_SEQUENCE": "GACCAAUCUGCCCUCAGAGCUCGAGAACAUCUUCGGAUGCAGAGGAGGCAGGCUUCGGUGGCGCGAUAGCGCCAACGUCCUCAACCUCCAAUGCAUCCCACCACAUGAUCAUGCCUGAAGAGCCUUGGUUUUAUG [G110C U133A]", "CLASSIFICATION": "label 0"}
{"QUERY_SEQUENCE": "GACCAAUCUGCCCUCAGAGCUCGAGAACAUCUUCGGAUGCAGAGGAGGCAGGCUUCGGUGGCGCGAUAGCGCCAACGUCCUCAACCUCCAUUGCAUCCCACCACAUGAUGAUGCCUGAAGAGCCUUGUUUUUUUG [A91U G128U]", "CLASSIFICATION": "label 0"}
{"QUERY_SEQUENCE": "GACCAAUCUGUCCUCAGACCUCGAGAACAUCUUCGGAUGCAGAGGAGGCAGGCUUCGGUGGCGCGAUAGCACCAACGUCCUCAACCUCCAAUGCAUCCCACCACAUGAUGAUGCCCGAUGAACCUUGGUUUUUUG [C11U G19C G71A U116C A119U G122A]", "CLASSIFICATION": "label 0"}
